target: Cytoplasmic tyrosine-protein kinase BMX (Homo sapiens); settings: at 1 µM;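 also: reported value is the mean percent inhibition of BMX, from the GSK PKIS kinase inhibitor screen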
Short version: inhibition at least 3% is True, less is False.

// query Exam item: decide whether the reported inhibition for CCn1c(-c2nonc2N)nc2cnc(Oc3cccc(NC(=O)c4ccc(N(C)C)cc4)c3)cc21 is at least 3%.
// result False

// query Exam item: decide whether the reported inhibition for COc1ccc(-c2cc3c(N)ncnc3o2)cc1 is at least 3%.
// result False

// query Exam item: decide whether the reported inhibition for Fc1ccc(-c2nn3ccccc3c2-c2ccncc2)cc1 is at least 3%.
// result False

// query Exam item: decide whether the reported inhibition for Cc1cccc2c1NC(=O)/C2=N\Nc1ccc(S(N)(=O)=O)cc1 is at least 3%.
// result False

// query Exam item: decide whether the reported inhibition for CCn1c(-c2nonc2N)nc2c(C#CC(C)(C)O)nc(OC[C@H](N)c3ccccc3)cc21 is at least 3%.
// result True

----------
target: CDK3/Cyclin E (Homo sapiens) (UniProt P24864+Q00526); settings: at 0.1 µM;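 also: reported percentages are mean inhibition values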
Sequence (P24864 whole entry, looked up): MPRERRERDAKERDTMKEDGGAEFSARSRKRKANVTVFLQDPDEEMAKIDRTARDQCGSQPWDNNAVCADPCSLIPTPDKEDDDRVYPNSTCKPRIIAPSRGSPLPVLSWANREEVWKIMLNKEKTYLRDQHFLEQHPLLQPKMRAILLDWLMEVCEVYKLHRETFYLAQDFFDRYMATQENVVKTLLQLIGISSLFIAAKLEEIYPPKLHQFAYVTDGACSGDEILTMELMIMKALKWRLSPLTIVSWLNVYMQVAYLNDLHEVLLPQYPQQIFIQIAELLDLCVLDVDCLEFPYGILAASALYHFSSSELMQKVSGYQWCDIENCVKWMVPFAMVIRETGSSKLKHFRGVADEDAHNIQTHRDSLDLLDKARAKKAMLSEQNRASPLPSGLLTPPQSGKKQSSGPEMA
Sequence (Q00526 whole entry, looked up): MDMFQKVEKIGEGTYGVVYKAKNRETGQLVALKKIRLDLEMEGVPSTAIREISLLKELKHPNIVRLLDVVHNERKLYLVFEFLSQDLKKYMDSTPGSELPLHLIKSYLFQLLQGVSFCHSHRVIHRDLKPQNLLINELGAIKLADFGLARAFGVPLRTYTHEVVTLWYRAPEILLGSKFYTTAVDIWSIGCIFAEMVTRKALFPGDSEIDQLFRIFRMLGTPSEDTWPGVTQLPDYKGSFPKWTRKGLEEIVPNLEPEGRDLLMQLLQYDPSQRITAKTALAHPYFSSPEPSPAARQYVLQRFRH
Test Readout: inhibition (%)
Field: numeric (%). Do not append units.

Looking up CCNC(=O)O[C@H]1CN[C@H](C#Cc2cc3ncnc(Nc4ccc(OCc5cccc(F)c5)c(Cl)c4)c3s2)C1 , I found its inhibition recorded as 1.08

Looking up COc1cccc(-c2c[nH]c3c(N/N=C/c4ccncc4)ncnc23)c1 , I found its inhibition recorded as 6.61

Looking up CNC(=O)c1cncc(/C=C/c2ccccc2Cl)c1 , I found its inhibition recorded as 0.31

Looking up COc1cc(Nc2nccc(Nc3ccc4c(C)n[nH]c4c3)n2)cc(OC)c1OC , I found its inhibition recorded as 1.75

Looking up N#Cc1c(NC(=O)c2ccc(F)cc2)sc2c1CCCC2 , I found its inhibition recorded as 0.87

Looking up CCn1c(-c2nonc2N)nc2ccccc21 , I found its inhibition recorded as 1.63

Looking up Nc1nc(-c2cccc(Cl)c2)c(-c2ccc3ncccc3n2)s1 , I found its inhibition recorded as 2.24

Looking up CCN(CC)S(=O)(=O)c1ccc(OC)c(Nc2ncc(-c3ccccc3)o2)c1 , I found its inhibition recorded as 1.42

Looking up Fc1cccc(COc2ccc(Nc3ncnc4sc(-c5ccco5)cc34)cc2Cl)c1 , I found its inhibition recorded as -0.59

Looking up c1ccc(COc2ccc(Nc3ncnc4ccc(-c5ccco5)cc34)cc2)cc1 , I found its inhibition recorded as 0.53

Looking up c1cc(-c2cnn3nc(N4CCOCC4)ccc23)nc(NC2CC2)n1 , I found its inhibition recorded as 2.41

----------
target: Tyrosine-protein kinase HCK (Homo sapiens); details: at 0.1 µM;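 also: values are mean inhibition of HCK, taken from the GSK_PKIS kinase profiling screen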
Test Readout: inhibition (%)
Field: numeric (%). Do not append units.

Looking up N#Cc1c(NC(=O)CN2CCOCC2)sc2c1CCCC2 , I found its inhibition recorded as 2.96

Looking up CCn1c(-c2nonc2N)nc2cnc(Oc3cccc(NC(=O)c4ccc(N(C)C)cc4)c3)cc21 , I found its inhibition recorded as 4.12

Looking up Fc1ccc(-c2nn3ncccc3c2-c2ccnc(Nc3ccc4c(c3)OCCO4)n2)cc1 , I found its inhibition recorded as 26.3

Looking up CCn1c(-c2nonc2N)nc2c(C#CC(C)(C)O)ncc(OC3CCNCC3)c21 , I found its inhibition recorded as 3.4

Looking up COc1ccc2c(-c3ccnc(Nc4cccc(OC(F)(F)F)c4)n3)cnn2n1 , I found its inhibition recorded as 5.89

Looking up NS(=O)(=O)c1ccc(N/N=C2\C(=O)Nc3ccc4ncccc4c32)cc1 , I found its inhibition recorded as 13.6

Looking up NS(=O)(=O)c1ccc(Nc2ncc(-c3ccccc3)o2)cc1 , I found its inhibition recorded as 4.43

Looking up CCCN(CCS(C)(=O)=O)Cc1ccc(-c2ccc3ncnc(Nc4ccc(OCc5cccc(F)c5)c(Cl)c4)c3c2)o1 , I found its inhibition recorded as 4.4

Looking up COc1cc2c(cc1Nc1nc(Nc3ccsc3C(N)=O)c3cc[nH]c3n1)N(C(=O)CN(C)C)CCC2(C)C , I found its inhibition recorded as 6.46

Looking up c1cc(-c2cnn3nc(N4CCOCC4)ccc23)nc(NC2CC2)n1 , I found its inhibition recorded as 7.14

Looking up Cc1cccc2c1NC(=O)/C2=N\Nc1ccc(S(N)(=O)=O)cc1 , I found its inhibition recorded as 4.11

Looking up COC(=O)Nc1nc2ccc(S(=O)(=O)c3ccc(NC(=O)Nc4cc(C(F)(F)F)ccc4F)cc3)cc2[nH]1 , I found its inhibition recorded as 3.3

Looking up CCOc1ccc2c(-c3ccnc(Nc4cccc(C(F)(F)F)c4)n3)cnn2n1 , I found its inhibition recorded as 4.28

Looking up CNC(=O)c1cc(-c2ccc(F)cc2)cc(-c2ccc(S(=O)(=O)N3CCCC3)cc2)c1N , I found its inhibition recorded as 2.71

Looking up O=C(Nc1n[nH]c2cc(-c3ccc(F)cc3)ccc12)C1CC1 , I found its inhibition recorded as 5.36

Looking up COc1cccc(-c2c[nH]c3c(N/N=C/c4ccncc4)ncnc23)c1 , I found its inhibition recorded as 12.8

Looking up COC(=O)c1sc(-n2cnc3cc(OC)c(OC)cc32)cc1OCc1ccccc1C(F)(F)F , I found its inhibition recorded as 9.79

Looking up Nc1nc(-c2ccc(F)cc2)c(-c2ccc3ncccc3n2)s1 , I found its inhibition recorded as 5.89

Looking up COc1cc(N2CCN(C(C)C)CC2)ccc1Nc1nc(Nc2ccc(F)cc2C(N)=O)c2cc[nH]c2n1 , I found its inhibition recorded as 3.05

Looking up Cc1ccc(O)cc1Nc1ccnc2cc(-c3ccccn3)ccc12 , I found its inhibition recorded as 70.9

Looking up O=S(=O)(CCNCc1ccc(-c2ccc3ncnc(Nc4ccc(OCc5cccc(F)c5)c(Cl)c4)c3c2)o1)c1ccccc1 , I found its inhibition recorded as 7.05

Looking up [O-][S+]1CCN(Cc2ccc(-c3ccc4ncnc(Nc5ccc(OCc6cccc(F)c6)c(Cl)c5)c4c3)o2)CC1 , I found its inhibition recorded as 6.09

Looking up CC(=O)Nc1cccc(C#Cc2cncnc2Nc2ccc(OCc3cccc(F)c3)c(Cl)c2)c1 , I found its inhibition recorded as 5.81

Looking up COc1cc(Nc2nccc(Nc3ccc4c(C)n[nH]c4c3)n2)cc(OC)c1OC , I found its inhibition recorded as 31.2

Looking up CC(C)(CO)CNC(=O)c1ccc2c(c1)/C(=N/Nc1ccc(S(N)(=O)=O)cc1)C(=O)N2 , I found its inhibition recorded as 0.91

Looking up N#Cc1c(NC(=O)c2ccc(F)cc2)sc2c1CCCC2 , I found its inhibition recorded as 1.68

Looking up Nc1nc(-c2cccc(Cl)c2)c(-c2ccc3ncccc3n2)s1 , I found its inhibition recorded as 3.98

Looking up COc1cc(/C=N/Nc2ncnc3[nH]ncc23)ccc1O , I found its inhibition recorded as 11.1

Looking up COc1ccc(-c2nn3ncccc3c2-c2ccnc(Nc3ccc4c(c3)OCCO4)n2)cc1 , I found its inhibition recorded as 13.4

Looking up Fc1ccc(-c2nn3ccccc3c2-c2ccncc2)cc1 , I found its inhibition recorded as 1.96

Looking up Fc1ccc(-c2cc(-c3c[nH]nc3-c3ccccn3)ccn2)cc1 , I found its inhibition recorded as 5.58

Looking up CC(=O)NCc1cccc(C#Cc2cncnc2Nc2ccc(OCc3cccc(F)c3)c(Cl)c2)c1 , I found its inhibition recorded as 2.8

Looking up COC(=O)Nc1nc2ccc(Oc3ccc(NC(=O)Nc4cccc(Cl)c4)cc3)cc2[nH]1 , I found its inhibition recorded as 3.38

Looking up Fc1cccc(COc2ccc(Nc3ncnc4sc(-c5ccco5)cc34)cc2Cl)c1 , I found its inhibition recorded as 4.32

Looking up FC(F)(F)c1cccc(-c2nn3ncccc3c2-c2ccnc(Nc3ccc4c(c3)OCCO4)n2)c1 , I found its inhibition recorded as 5.43

Looking up O=C(O[C@H]1CN[C@H](C#Cc2cc3ncnc(Nc4ccc(Cc5ccccc5)cc4)c3s2)C1)N1CCOCC1 , I found its inhibition recorded as 1.46

Data origin, for the record: ChEMBL document CHEMBL1961873
